# Test system: SARS-CoV-2 (USA_WA1/2020)
# Method: microbe, parasite or virus in culture
# Assay type: cell-based
# Applied Conditions: Severe acute respiratory syndrome coronavirus 2, Vero C1008; SARS-CoV-2 CPE assay, Vero E6 cells; read-out: CPE % Efficacy
Structures can show the parent of a compound that is named as a salt.
So I've got a bunch of compounds here, and I need their Emax values.
Numeric answer only, unit % assumed.

### Prompt What Emax value was documented for this compound, CN(C)CCC=C1c2ccccc2CCc2ccccc21 [Amitriptyline hydrochloride] ?
### Response 69.9

### Prompt Queued: COc1cc(C(C)=O)ccc1OCCCN1CCC(c2noc3cc(F)ccc23)CC1
### Response 108

### Prompt Further, for Cc1cc(O)c2c(c1)O[C@@]1(C)CC[C@H]3C(C)(C)CCC[C@]34CO[C@@H]2[C@H]41 ?
### Response 104

### Prompt Again, but for O=c1ccc2ccc(OCCCCN3CCN(c4cccc5sccc45)CC3)cc2[nH]1
### Response 94.9

---

Would you mind telling me the reported CC50 of each entry?
# Test system: Vero E6 cells
# Applied Conditions: read-out: Cytotox CC50; cytotoxicity counter-assay, Vero E6 cells without virus
Could you give me the number in µM? Just the number is fine.

### Prompt Recorded CC50 for O=C(/C=C/c1ccc(Cl)cc1)N1CCC2(CC1)CN(Cc1ccc(Cl)c(Cl)c1)C(=O)O2 [GSK-682753A] , please?
### Response 12.6

### Prompt Then CC(C)(C)Cn1c(N)nc2ccc(-c3[nH]c(C(C)(C)C)nc3-c3ccc(F)cc3)nc21 [LY-2228820 (ralimetinib)] ?
### Response 12.6

### Prompt Could you do the same for C[C@@H]1O[C@@H](O[C@H]2[C@H](OC(=O)[C@]34CCC(C)(C)C[C@H]3C3=CCC5[C@@]6(C)CC[C@H](O[C@@H]7O[C@H](CO[C@@H]8OC[C@H](O)[C@H](O)[C@H]8O)[C@@H](O)[C@H](O)[C@H]7O)C(C)(C)C6CC[C@@]5(C)[C@]3(C)C[C@H]4O)OC[C@@H](O)[C@@H]2O)[C@H](O)[C@H](O[C@@H]2OC[C@](O)(CO)[C@H]2O)[C@H]1O[C@@H]1OC[C@H](O)[C@H](O[C@@H]2OC[C@@H](O)[C@H](O)[C@H]2O)[C@H]1O (stereo partly drawn) , please?
### Response 2.14

### Prompt Also, COc1cc(-c2cc(-c3ccc(N4CCNCC4)cc3)cnc2C)cc(OC)c1OC please.
### Response 11.2

### Prompt Another molecule: C/C=C(\C)C(=O)O[C@H]1C=C(CO)C(=O)[C@H](OC(C)=O)[C@H]1C(C)C
### Response 10

### Prompt Try the molecule CCCCCCOc1ccc(C(=N)N(CCCC)CCCC)c2ccccc12.Cl [Bunamidine hydrochloride]
### Response 11.2

---

# Tested on: Vero E6 cells
# Applied Conditions: read-out: Cytotox CC50; cytotoxicity counter-assay, Vero E6 cells without virus
For each entry below, report its CC50 value.
Supply the numeric figure in µM, leaving out any unit text.

### Prompt Please look up its CC50: CCOC(=O)N[C@@H]1CC[C@@H]2[C@@H](C1)C[C@H]1C(=O)O[C@H](C)[C@H]1[C@H]2/C=C/c1ccc(-c2cccc(F)c2)cn1.O=S(=O)(O)O [Vorapaxar Sulfate]
### Response 12.6

### Prompt Request: Br.O=C(CN1C2=NCCN2c2ccccc21)c1ccc(-c2ccccc2)cc1 [CCT 031374 hydrobromide]
### Response 12.6

### Prompt Same read-out for Cl.Cl.O=S(=O)(c1cccc2ccccc12)n1ccc2ccc(N3CCN4CCCC4C3)cc21 (centres unmarked) [NPS ALX Compound 4a dihydrochloride] ?
### Response 12.6

### Prompt // repeat for C[C@@H]1O[C@@H](O[C@@H]2[C@@H](O)[C@H](O[C@@H]3[C@@H](O)[C@@H](O)[C@H](O[C@H]4[C@H](OC(=O)[C@]56CCC(C)(C)C[C@H]5C5=CCC7[C@@]8(C)C[C@H](O)[C@H](O[C@@H]9O[C@@H](C)[C@H](O)[C@@H](O)[C@H]9O)[C@@](C)(CO)C8CC[C@@]7(C)[C@]5(C)C[C@H]6O)O[C@H](C)[C@H](O)[C@@H]4O)O[C@H]3C)OC[C@H]2O)[C@H](O)[C@H](O)[C@H]1O (some centres unmarked) and report
### Response 1.91

### Prompt What do we get for O=C(NCCCN1CCN(c2ccccc2F)CC1)c1ccc2nc(Cc3ccccc3)oc2c1 ?
### Response 15.8

### Prompt // next record CCc1ccccc1OC[C@@H](O)CN[C@H]1CCCc2ccccc21.Cl [SR 59230A hydrochloride]
### Response 17.8

### Prompt Follow-up entry: Cc1ncc(NC(=O)c2cccc(C(F)(F)F)c2)cc1-c1cnc(OC2CCOCC2)c(N2CCOCC2)c1
### Response 8.91

### Prompt C/C(=N\NC(=S)N1CCC1)c1ccccn1 ?
### Response 0.35

### Prompt Now give it for c1ccc(-c2ccc(CNc3nc(-c4ccccn4)nnc3-c3ccccc3)cc2)cc1 too.
### Response 0.56

### Prompt And what about the molecule C[C@@H]1O[C@@H](O[C@H]2[C@H](OC(=O)[C@]34CCC(C)(C)C[C@H]3C3=CCC5[C@@]6(C)CC[C@H](O[C@@H]7O[C@H](CO[C@@H]8OC[C@H](O)[C@H](O)[C@H]8O)[C@@H](O)[C@H](O)[C@H]7O)C(C)(C)C6CC[C@@]5(C)[C@]3(C)C[C@H]4O)OC[C@@H](O)[C@@H]2O)[C@H](O)[C@H](O)[C@H]1O[C@@H]1OC[C@H](O)[C@H](O[C@@H]2OC[C@@H](O)[C@H](O)[C@H]2O)[C@H]1O (some centres unmarked) ?
### Response 1.91

### Prompt Now the same for Nc1ncnc2c1c(-c1cccc(OCc3ccccc3)c1)cn2C1CC(CN2CCCC2)C1 (centres unmarked)
### Response 12.6

### Prompt Proceed to COc1cc2nc(N3CCCCC3)nc(NC3CCN(Cc4ccccc4)CC3)c2cc1OC
### Response 10

### Prompt Then what about the molecule COc1ccccc1OCCNCC(O)COc1cccc2[nH]c3ccccc3c12.O=C(O)C(O)C(O)C(=O)O (centres unmarked) [Carvedilol tartrate] ?
### Response 11.2

### Prompt Now this one: CC1(C)CCC(C)(C)c2cc(C#Cc3ccc(C(=O)O)cc3)ccc21
### Response 12.6

### Prompt Another: Cc1ccc(NC(=O)C(C)C)cc1C1CCN(Cc2ccc(Oc3ccc(F)c(F)c3)cc2)CC1.Cl [SNAP 94847 hydrochloride]
### Response 12.6

### Prompt // same read-out, input: COc1cccc2c1CCCC2CCCN1CCN(C2CCCCC2)CC1 (centres unmarked)
### Response 12.6

### Prompt Let us now turn to COc1ccc(S(=O)(=O)N(CCO)c2ccccc2CN(C)C/C=C/c2ccc(Cl)cc2)cc1
### Response 11.2

### Prompt Consider next the molecule Cl.Cl.Clc1ccccc1CNCC1CCC(CNCc2ccccc2Cl)CC1 (centres unmarked) [AY 9944 dihydrochloride] in the same way.
### Response 12.6

### Prompt Do the same for CS(=O)(=O)O.Cc1ncc(NC(=O)c2ccc(CN3CCN(C)CC3)c(C(F)(F)F)c2)cc1Nc1nccc(-c2cccnc2)n1 [Flumatinib mesylate] please
### Response 4.47

### Prompt Another molecule to look at: CCC(C)C(=O)OC1CC(O)C23C4OCC5(C(O)CC2C1(C)C(O)O4)C3C(=O)CC1(C)C(c2ccoc2)CC2OC215 (centres unmarked)
### Response 7.8

### Prompt Record: CCCCN1[C@@H]2CC[C@H]1CC(OC(c1ccc(F)cc1)c1ccc(F)cc1)C2.Cl (some centres unmarked) [JHW 007 hydrochloride]
### Response 12.6

### Prompt And the next one, Cc1cc(N2CCN(C(=O)Oc3ccc(-c4ccccc4)cn3)CC2)c2ccccc2n1 ?
### Response 12.6

### Prompt Follow-up item: C=C1Cc2c(Cl)cc3[nH]c4c5c3c2[C@@]2(O)[C@@H]1C[C@@H]2C(C)(C)O[C@H]5C1CC[C@@]2(O)[C@@]35O[C@@H]3[C@H]3OC(C)(C)[C@H]3O[C@H]5CC[C@]2(C)[C@@]41C (some centres unmarked)
### Response 4.74

### Prompt Next: Cc1cccc(Nc2nc(N[C@@H]3CCCC[C@@H]3N)ncc2C(N)=O)c1
### Response 12.6

### Prompt And what about the molecule Cc1cc(CC(C)CC(C)(C)C)n(O)c(=O)c1.NCCO (centres unmarked) ?
### Response 1.78

### Prompt Moving on to the next molecule: COc1cccc(NC[C@@H](O)Cn2c3ccc(Br)cc3c3cc(Br)ccc32)c1 [(R)-P7C3-Ome]
### Response 11.2

Data credit: paper PMC7942396
